- Target or system: A. thaliana A205V-mutant ALS (Arabidopsis thaliana, UniProt P17597, A205V/E575Q)
- Construct: vector-encoded fusion of pET-32a(+) (Trx/His/S-tag by own knowledge of the vector); made in house; host or cells: Escherichia coli AD494
- Sequence (P17597 56-670 A205V/E575Q): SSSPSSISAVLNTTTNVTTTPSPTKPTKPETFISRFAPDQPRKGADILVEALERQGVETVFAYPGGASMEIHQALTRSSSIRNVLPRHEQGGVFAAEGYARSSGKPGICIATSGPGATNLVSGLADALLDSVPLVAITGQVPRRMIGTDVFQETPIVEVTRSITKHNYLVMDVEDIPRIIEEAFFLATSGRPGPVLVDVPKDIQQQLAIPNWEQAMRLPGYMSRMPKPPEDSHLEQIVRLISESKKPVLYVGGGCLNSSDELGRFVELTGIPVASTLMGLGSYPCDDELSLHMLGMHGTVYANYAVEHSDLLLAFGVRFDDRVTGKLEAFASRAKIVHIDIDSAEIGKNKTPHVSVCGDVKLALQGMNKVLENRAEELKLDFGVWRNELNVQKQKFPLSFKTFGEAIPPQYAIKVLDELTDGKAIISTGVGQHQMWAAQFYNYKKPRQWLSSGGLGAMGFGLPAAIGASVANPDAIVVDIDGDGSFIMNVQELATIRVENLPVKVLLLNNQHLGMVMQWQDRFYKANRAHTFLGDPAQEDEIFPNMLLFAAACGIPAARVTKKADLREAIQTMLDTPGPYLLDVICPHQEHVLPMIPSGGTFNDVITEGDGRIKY
- Measurement description: biochemical
- Experimental setup: negative logarithm of the molar concentration inhibiting the enzyme activity by 50%; crude extract of E. coli expressing A. thaliana A205V ALS; 75 min, 30° C.; read-out: ALS PI50 A205V (converted)
# IC50 per entry
Property name: IC50

{"Molecule": "COc1cc(OC)nc(NC(=O)NS(=O)(=O)c2ncccc2C(=O)N(C)C)n1", "Property name": "IC50", "Measured result": "1000 nM"}
{"Molecule": "CCS(=O)(=O)c1cccnc1S(=O)(=O)NC(=O)Nc1nc(OC)cc(OC)n1", "Property name": "IC50", "Measured result": "158 nM"}
{"Molecule": "COc1cc(OC)nc(NC(=O)NS(=O)(=O)c2cc(NC=O)ccc2C(=O)N(C)C)n1", "Property name": "IC50", "Measured result": "501 nM"}
{"Molecule": "COc1cc(OC)nc(NC(=O)NS(=O)(=O)c2ncccc2C(F)(F)F)n1", "Property name": "IC50", "Measured result": "15.8 nM"}
{"Molecule": "COc1cc(OC)n2nc(S(=O)(=O)Nc3c(Cl)ccc(C)c3Cl)nc2n1", "Property name": "IC50", "Measured result": "794 nM"}
{"Molecule": "CCS(=O)(=O)c1nc2ccccn2c1S(=O)(=O)NC(=O)Nc1nc(OC)cc(OC)n1", "Property name": "IC50", "Measured result": "1260 nM"}
{"Molecule": "COc1cc(OC)nc(NC(=O)NS(=O)(=O)N(C)S(C)(=O)=O)n1", "Property name": "IC50", "Measured result": "12600 nM"}
{"Molecule": "COCc1cnc(C2=NC(C)(C(C)C)C(=O)N2)c(C(=O)O)c1 (stereo not shown)", "Property name": "IC50", "Measured result": "> 100000 nM"}
{"Molecule": "COc1cc(OC)nc(Oc2cccc(Oc3nc(OC)cc(OC)n3)c2C(=O)O)n1 [Bispyribac-sodium, bispyribac-sodium]", "Property name": "IC50", "Measured result": "100 nM"}
{"Molecule": "COC(=O)c1sccc1S(=O)(=O)NC(=O)Nc1nc(C)nc(OC)n1", "Property name": "IC50", "Measured result": "631 nM"}

Value source: patent US9370183B2
